biological target: recombinant rat mGluR5 (Rattus norvegicus); construct: expressed in transfected cells; test: Functional calcium flux assay (FLIPR), antagonist evaluation against glutamate-evoked [Ca2+]i increase; type: cell-based; details: Table 2; HEK293 cells stably expressing recombinant rat mGluR5; 15 min incubation of test compound, then submaximal glutamate; read-out: IC50 (FLIPR assay)
Sequence (P31424 21-1203): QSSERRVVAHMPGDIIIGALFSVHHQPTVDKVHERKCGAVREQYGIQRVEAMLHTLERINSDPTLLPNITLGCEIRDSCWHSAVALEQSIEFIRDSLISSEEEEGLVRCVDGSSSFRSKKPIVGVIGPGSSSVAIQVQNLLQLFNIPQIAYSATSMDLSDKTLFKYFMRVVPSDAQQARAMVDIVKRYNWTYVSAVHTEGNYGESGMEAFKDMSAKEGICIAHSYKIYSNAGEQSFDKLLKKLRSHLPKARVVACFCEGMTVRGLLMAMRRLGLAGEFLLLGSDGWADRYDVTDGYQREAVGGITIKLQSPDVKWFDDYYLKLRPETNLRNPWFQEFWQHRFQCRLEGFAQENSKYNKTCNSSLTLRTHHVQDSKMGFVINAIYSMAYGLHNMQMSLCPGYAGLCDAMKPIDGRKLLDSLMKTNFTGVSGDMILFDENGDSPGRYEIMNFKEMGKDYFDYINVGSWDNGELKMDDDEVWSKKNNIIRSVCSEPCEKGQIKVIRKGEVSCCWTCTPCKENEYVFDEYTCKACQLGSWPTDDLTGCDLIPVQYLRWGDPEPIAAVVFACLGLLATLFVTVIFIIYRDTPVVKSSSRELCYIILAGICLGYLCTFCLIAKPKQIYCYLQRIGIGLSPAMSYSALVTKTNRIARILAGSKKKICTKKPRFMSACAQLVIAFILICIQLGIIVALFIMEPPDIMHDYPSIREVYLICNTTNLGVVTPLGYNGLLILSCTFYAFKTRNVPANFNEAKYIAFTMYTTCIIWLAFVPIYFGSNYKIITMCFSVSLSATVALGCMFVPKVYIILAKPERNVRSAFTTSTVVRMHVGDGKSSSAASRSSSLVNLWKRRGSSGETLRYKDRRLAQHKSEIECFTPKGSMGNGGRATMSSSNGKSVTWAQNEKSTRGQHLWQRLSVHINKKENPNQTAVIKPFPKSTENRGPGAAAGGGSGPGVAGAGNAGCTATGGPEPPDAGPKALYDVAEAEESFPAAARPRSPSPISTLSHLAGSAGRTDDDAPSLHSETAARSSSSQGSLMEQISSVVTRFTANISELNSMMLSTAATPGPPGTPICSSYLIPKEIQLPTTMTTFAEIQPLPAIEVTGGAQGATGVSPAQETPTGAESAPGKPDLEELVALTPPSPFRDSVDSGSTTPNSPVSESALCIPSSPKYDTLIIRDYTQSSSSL
pIC50: −log10 of the molar value.
measurementLabel: pIC50

>>> measuredresult("FC(F)(F)Oc1ccc(-n2ccc(C#Cc3cnccn3)n2)cc1 [Compound 125]")
"5.30 to 6.00"

Query: // map N#Cc1cc(F)cc(-n2ccc(C#Cc3ccccc3)n2)c1 [Compound 104] to recorded pIC50 (system: recombinant rat mGluR5 (Rattus norvegicus))
Result: 5.30 to 6.00

Query: Notebook entry, recombinant rat mGluR5 (Rattus norvegicus) assay: pIC50 of Cc1cc(C#Cc2ccccn2)nn1-c1cc(F)cc(C#N)c1 [Compound 97] = ?
Result: ≥ 6.30

Query: For recombinant rat mGluR5 (Rattus norvegicus), provide pIC50 of Fc1ccc(-n2ccc(C#Cc3ncccn3)n2)cc1 [Compound 117] please.
Result: 6.00 to 6.30

Query: Which measured pIC50 belongs to N#Cc1cc(F)cc(-n2ccc(C#Cc3ccccn3)n2)c1 [Compound 105] , tested on recombinant rat mGluR5 (Rattus norvegicus)?
Result: ≥ 6.30

Query: Entry Cc1cc(C#Cc2ccccn2)nn1-c1ccc(F)cn1 [Compound 73] , system recombinant rat mGluR5 (Rattus norvegicus): what pIC50 was measured?
Result: ≥ 6.30

Query: Record lookup: for recombinant rat mGluR5 (Rattus norvegicus), what pIC50 belongs to Cc1cc(C#Cc2cccnc2)nn1-c1ccc(OC(F)(F)F)cc1 [Compound 132] ?
Result: 5.30 to 6.00

* * *

Biological target: recombinant rat mGluR5 (Rattus norvegicus)
Construct: expressed in transfected cells
Assay: Functional calcium flux assay (FLIPR), antagonist evaluation against glutamate-evoked [Ca2+]i increase
Format: cell-based
Conditions: Table 1; HEK293 cells stably expressing recombinant rat mGluR5; 15 min incubation of test compound, then submaximal glutamate; read-out: IC50 value (FLIPR assay)
Method: Functional Calcium Clux Assay Methodology For functional assays, HEK293 cells stably expressing recombinant rat mGluR5 were seeded in 384-well plates and dye loaded using Fluo-8. Cells were then washed to remove the un-incorporated dye. […] Intracellular calcium ([Ca^2+]i) measurements were performed using a fluorometric imaging plate reader (FLIPR, Molecular Devices). […]
measurementLabel: IC50

Below, each entry is followed by its recorded IC50 result.
>>> measuredresult("Cc1c(C#Cc2ccccn2)c(N(C)C)nn1-c1cc(F)cc(C#N)c1 [Compound 15]")
"1000 to 5000 nM"
>>> measuredresult("Fc1ccc(-n2cc(C#Cc3ccccn3)c(Cl)n2)nc1 [Compound 49]")
"≤ 500 nM"

Read the next record carefully.
Query: Using the record for N#Cc1cc(F)cc(-n2cc(C#Cc3ncccn3)cn2)c1 [Compound 78] , report its IC50.
Result: ≤ 500 nM
